tested on: Plasmodium berghei; assay: Screen against P. berghei liver stage (PbLuc), transformed with Luciferase, at 10uM; type: functional, HepG2; conditions: tested at 10 uM
Among all 69,000 compounds or so, about 8,600 (12%) showed an effect of 50% or more. This excerpt belongs to a sample that is enriched for strong results.
We use 20% as the dividing line for INHIBITION: on or above the line is criterion met, below is criterion not met.

Worked examples, 4 compounds total:
compound	class-name
COc1cc2nc(C)n(CC(=O)NCCO)c(=O)c2cc1OC	criterion not met
CN(C)c1cc(C(=O)N2CCCC2)ccn1	criterion not met
O=C(c1cc2c(s1)CCCC2)N1CCc2nc(C3CCCN3)ncc2C1 (stereo unspecified)	criterion met
O=C(NCC1CC1)[C@H]1C[C@@H]2CCN(Cc3nccs3)C[C@@H]2O1	criterion met

--- query ---
Confirm if INHIBITION reported for the compound CC(C)(C)c1cnc(CN2CCCCC2Cn2cccn2)o1 (stereo unspecified) is 20% or above.
criterion not met

###

system: Plasmodium berghei; experiment: Screen against P. berghei liver stage (PbLuc), transformed with Luciferase, at 10uM; format: functional, HepG2; conditions: tested at 10 uM
Out of some 69,000 compounds screened, about 8,600 (12%) showed an effect of 50% or more. The sample holds strong results, similar compounds and a random draw of the others, so the mix is not that of the screen.
property-measured: INHIBITION (%)
Give bare numbers, in %.

Before answering, review these 5 worked examples.
compound	units-symbol	observed-measurement
COc1cccc(N2CCN(CC(O)c3ccc(C)cc3)CC2)c1 (stereo unspecified)	%	17.4
COc1cccc(C(O)CN2CCN(c3cccc(C)c3)CC2)c1 (stereo unspecified)	%	16
O=C(COc1ccccc1)N1CCCC1c1ccc[nH]1 (stereo unspecified)	%	-23.3
O=C(COc1ccc2c(c1)CCC2)N1CCCC1c1ccc[nH]1 (stereo unspecified)	%	-38.6
Cc1cccc(C2CCCN2C(=O)CCS(C)(=O)=O)c1C (stereo unspecified)	%	-8.84

In the following, a different compound is considered.
Please report the recorded INHIBITION for COc1cccc(N2CCN(CC(O)c3cc(C)ccc3C)CC2)c1 (stereo unspecified) .
67.9

###

test system: Plasmodium berghei; test: Screen against P. berghei liver stage (PbLuc), transformed with Luciferase, at 10uM; type: functional, HepG2; settings: tested at 10 uM
In all, about 69,000 compounds went through this assay and about 8,600 (12%) showed an effect of 50% or more. Only a selection was taken, and strong results are over-represented in it overall.
property-measured: INHIBITION (%)
Answers are plain numbers, in %.

compound	tested-target	INHIBITION, %
CN1CCN(Cc2cnn(-c3ccc(F)cc3)c2)[C@H]2CS(=O)(=O)C[C@H]21	Plasmodium berghei	69.8
O=C(NCCNc1ncccn1)N1CCCC1c1ccncc1 (stereo not given)	Plasmodium berghei	11.8
COc1ccc(CNC(=O)N2CCN(C)[C@@H]3CS(=O)(=O)C[C@@H]32)cc1	Plasmodium berghei	0.891
COc1ccccc1-n1cc(CN2CCN(C)[C@@H]3CS(=O)(=O)C[C@@H]32)cn1	Plasmodium berghei	50.1
O=C(Nc1cnccn1)[C@@H]1COC[C@H]2CN(C3CCC3)C[C@H]21	Plasmodium berghei	24.9

Hi! Can you tell me INHIBITION for each of these compounds?
1. COc1ccc(CN(C)c2nc3c(cnn3C)c(=O)[nH]2)c(OC)c1
2. Cc1ccc(-n2cc(CN3CCN(C)[C@@H]4CS(=O)(=O)C[C@@H]43)cn2)cc1
3. Cc1nc(CNCc2c(C(C)C)nn(C)c2N2CCOCC2)cs1
4. COc1ccc(CCNC(=O)N2CCN(C)[C@@H]3CS(=O)(=O)C[C@@H]32)cc1
5. COc1ccccc1CN(C)c1nc2c(cnn2C)c(=O)[nH]1

1: 73.8; 2: 29.1; 3: 49.6; 4: 31.9; 5: 27.9

###

test system: Plasmodium berghei; assay: Screen against P. berghei liver stage (PbLuc), transformed with Luciferase, at 10uM; assay type: functional, HepG2; settings: tested at 10 uM
Among all 69,000 compounds or so, about 8,600 (12%) showed an effect of 50% or more. This excerpt belongs to a sample that is enriched for strong results.
Would you kindly list INHIBITION for each of these compounds?
One number for each entry, in %.

Before answering, review these 8 worked examples.
compound	INHIBITION, %
CNc1cc(N2CCCC2CNCc2cscn2)ncn1 (centres undefined)	-2.35
Cc1sc2ccccc2c1S(=O)(=O)NCCNC(=O)C(C)C	-35
Cn1cc(CN2CCCN(C(=O)c3ccccn3)CC2)cn1	-13.35
Cn1cc(CN2CCCN(C(=O)c3ccc4ccccc4n3)CC2)cn1	52.35
Cc1ccc(CN2CCC3(CC(C(=O)NC4CCC4)=NO3)C2)o1 (centres undefined)	56.7
COc1cccc(CCC(=O)N2CCN(CC(C)(C)O)CC2)c1	4.3
CCn1ncc(S(=O)(=O)NC(C)c2cc(OC)ccc2OC)c1C (centres undefined)	32.3
Cc1nn(C)cc1-c1cc(-c2cn(C)nc2C)n(CC(=O)NC2CC2)n1	15.2

Hi! Can you tell me INHIBITION for each of these compounds?
1. CN1CCN(c2cc(CNC(=O)Cn3cccn3)ccn2)CC1
2. Cc1ccc(CN2CCC3(CC(C(=O)NCC4CC4)=NO3)C2)s1 (centres undefined)

[37.8, -117]

Hi! Can you tell me INHIBITION for each of these compounds?
1. COCCN1CCCC(Cc2ccc(N3CCOCC3)nn2)C1 (centres undefined)
2. O=C(NCc1csc(Br)c1)N1CCC(O)CC1
3. CC1CCC(O)(CSc2nnnn2C2CC2)CC1 (centres undefined)
4. Cc1ccc(S(=O)(=O)N2CCC3(CC(C(=O)NC4CCC4)=NO3)C2)cc1 (centres undefined)
5. COCc1nn(C)c2c1CCN(Cc1cnn(C)c1)C2
6. CC(C)C(=O)N1CC[C@H]2N(C)CC[C@@]2(C(=O)N2CCCC2)CC1
7. Cc1noc(C)c1-c1nc(C2CCCN(C(=O)CCN)C2)ccc1CO (centres undefined)

[-0.902, -0.822, -44.2, 5.67, -17.1, 3.81, -10.2]

Hi! Can you tell me INHIBITION for each of these compounds?
1. Cc1nocc1C(=O)N1CCCC2(CCN(c3cnn(C)c3)C2=O)C1 (centres undefined)
2. O=C(NC1CCC1)C1=NOC2(CCN(Cc3ccco3)C2)C1 (centres undefined)

1. 38.5
2. 64.9

Hi! Can you tell me INHIBITION for each of these compounds?
1. CC(OCC1CC1)C(=O)N1CCCN(Cc2cnn(C)c2)CC1 (centres undefined)
2. Cc1nc2ccc(C(=O)N3CCC(COc4ccccn4)CC3)cc2[nH]1
3. CCOC(=O)c1cnn(C2CCN(C(=O)CC3C=CCC3)CC2)c1N (centres undefined)

60.5
-6.73
29.8

Hi! Can you tell me INHIBITION for each of these compounds?
1. Cc1nc(-c2ccccc2)cc(C2CCNCC2)n1
2. Cc1cccc(C(=O)N2CCCN(Cc3cnn(C)c3)CC2)n1

1: -25.3; 2: 31.8

###

system: Plasmodium berghei; experiment: Screen against P. berghei liver stage (PbLuc), transformed with Luciferase, at 10uM; type: functional, HepG2; conditions: tested at 10 uM
About 8,600 (12%) of roughly 69,000 compounds showed an effect of 50% or more. The sample as a whole holds a higher share of strong results than the screen did.
We use 10% as the dividing line for INHIBITION: on or above the line is Condition met, below is Condition not met.

molecule	class-name
CN(C)CCN1C2(CCN(Cc3nccs3)C2)c2ccccc2S1(=O)=O (stereo unspecified)	Condition met

Confirm if INHIBITION reported for the molecule `CN(Cc1ccc(F)cc1)C(=O)Cn1nc(-c2ccc(F)cc2)oc1=O` is 10% or above.
Condition not met

Confirm if INHIBITION reported for the molecule `O=C(Cc1csc(-c2ccco2)n1)N1CCN(c2nccs2)CC1` is 10% or above.
Condition not met

Confirm if INHIBITION reported for the molecule `COc1ccccc1CNC(=O)Cn1nc(-c2ccc(F)cc2)oc1=O` is 10% or above.
Condition not met

Confirm if INHIBITION reported for the molecule COCCN1C2(CCN(Cc3nccs3)C2)c2ccccc2S1(=O)=O (stereo unspecified) is 10% or above.
Condition met

Confirm if INHIBITION reported for the molecule `Cc1ccccc1CN(C)C(=O)Cn1nc(-c2ccc(F)cc2)oc1=O` is 10% or above.
Condition met

Confirm if INHIBITION reported for the molecule `Cc1ccc2c(c1)[C@@H](CC(=O)N1CCOCC1)CCO2` is 10% or above.
Condition met

Confirm if INHIBITION reported for the molecule `Cc1ccnc(OC[C@]23COC[C@H]2CN(C(=O)c2ncccn2)C3)n1` is 10% or above.
Condition met

Confirm if INHIBITION reported for the molecule `Cc1nc(NCc2cccc(F)c2)cc(C2CCNCC2)n1` is 10% or above.
Condition met

Confirm if INHIBITION reported for the molecule CC(C)CCN1C2(CCN(c3ncccn3)C2)c2ccccc2S1(=O)=O (stereo unspecified) is 10% or above.
Condition met

Confirm if INHIBITION reported for the molecule `O=C(Cn1nc(-c2ccc(F)cc2)oc1=O)NCc1ccccc1F` is 10% or above.
Condition not met
